target: cRAF1 (Homo sapiens); test: Enzymatic activity (IC50) to kinases; type: biochemical; conditions: read-out: IC50 (Unit: nM) cRAF1
Sequence (P04049 whole entry): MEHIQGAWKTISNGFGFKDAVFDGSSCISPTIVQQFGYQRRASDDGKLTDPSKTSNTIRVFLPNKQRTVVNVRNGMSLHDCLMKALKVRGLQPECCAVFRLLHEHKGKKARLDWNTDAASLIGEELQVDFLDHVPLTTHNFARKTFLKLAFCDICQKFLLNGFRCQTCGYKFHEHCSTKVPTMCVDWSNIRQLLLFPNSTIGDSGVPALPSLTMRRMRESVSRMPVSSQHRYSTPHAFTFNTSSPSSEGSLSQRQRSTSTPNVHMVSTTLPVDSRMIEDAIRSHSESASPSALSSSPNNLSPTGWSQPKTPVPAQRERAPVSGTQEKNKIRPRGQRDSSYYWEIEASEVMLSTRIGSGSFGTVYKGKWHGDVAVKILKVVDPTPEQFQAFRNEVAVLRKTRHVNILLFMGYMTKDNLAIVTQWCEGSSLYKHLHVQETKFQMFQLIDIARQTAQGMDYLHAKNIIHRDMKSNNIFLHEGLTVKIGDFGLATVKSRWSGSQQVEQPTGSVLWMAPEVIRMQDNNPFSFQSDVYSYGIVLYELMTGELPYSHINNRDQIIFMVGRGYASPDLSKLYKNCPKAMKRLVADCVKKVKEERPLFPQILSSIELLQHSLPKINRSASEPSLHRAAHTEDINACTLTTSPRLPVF

Smiles Data	Tested System	Unit Annotation	IC50
C[C@H](O)CNc1nccc(-n2ccnc2Cc2cccc(NC(=O)Nc3ccc(C(F)(F)F)c(Cl)c3)c2)n1	cRAF1 (Homo sapiens)	nM	8.79

----------
tested on: U937 human leukemic monocyte lymphoma cell line; assay: Antiproliferative activity to U937 human leukemic monocyte lymphoma cell line; assay type: cell-based; settings: U-937; U937 human leukemic monocyte lymphoma cell line; read-out: U937 (GI50, Unit: μM)

Compound	GI50
C[C@H](O)CNc1nccc(-n2ccnc2Cc2cccc(NC(=O)c3ccccc3Sc3ccccc3C#N)c2)n1 [Example 15]	10 µM
C[C@H](O)CNc1nccc(-n2ccnc2Cc2cccc(NC(=O)C(c3ccc(Cl)cc3)c3ccc(Cl)cc3)c2)n1 [Example 17]	3.24 µM
C[C@H](O)CNc1nccc(-n2ccnc2C(=O)c2ccc(NC(=O)c3cc(N4CCN(C)CC4)cc(C(F)(F)F)c3)cc2)n1 [Example 36]	14.7 µM
CNC(=O)c1cc(Oc2ccc(NC(=O)Nc3ccc(Cl)c(C(F)(F)F)c3)cc2)ccn1 [Sorafenib, reference compound]	2.74 µM

Value source: patent US9540348B2
